Assay: Tumor uptake of PIP-biocytin (two-step pretargeting)
Format: in vivo, tumored nude mice
Settings: mouse, tumor, 0.0005 mg; 0.5 μg dose; 120 hour time point (96 hours after administration); read-out: peak tumor uptake
measured-attribute: tissue uptake at 96 h
Please state the number and follow it with the unit.

Could you tell me which tissue uptake at 96 h is on file for O=C(CCCCC1SCC2NC(=O)NC21)NCCCCC(NC(=O)c1ccc([131I])cc1)C(=O)O (stereo not shown) ?
85 %ID/g
